Reported melting point values are given for each entry in this list.
Structures can show the parent of a compound that is named as a salt.

- compound: "CCCCc1nc2ccccn2c(=O)c1-c1ccc(NC(=O)[C@@H]2CCCN2C(=O)OC(C)(C)C)cc1"
  melting point: "179 to 187 °C"
- compound: "CCCCc1nc2ccccn2c(=O)c1-c1ccc(NC2CCNC2)cc1 (stereo not shown) (as salt: hydrochloride)"
  melting point: "136 to 139 °C"
- compound: "CCCCc1nc2ccccn2c(=O)c1-c1ccc(N[C@@H]2CCOC2)cc1 (as salt: hydrochloride)"
  melting point: "135 to 145 °C"

// melting point value for CCCCc1nc2ccccn2c(=O)c1-c1ccc(N[C@@H]2CCN(C(=O)OC(C)(C)C)C2)cc1 : 98 to 99 °C

// melting point value for CCCCc1nc2ccccn2c(=O)c1-c1ccc(N[C@H]2CCN(C(=O)OC(C)(C)C)C2)cc1 : 95 to 96 °C

// melting point value for CCc1nc2ccccn2c(=O)c1-c1ccc(N[C@@H]2CCNC2)cc1 (as salt: hydrochloride) : 175 to 182 °C

// melting point value for CCCCc1nc2ccccn2c(=O)c1-c1ccc(N[C@H]2CCNC2)cc1 (as salt: hydrochloride) : 164 to 171 °C

* * *

Tested on: sodium channel
Assay: Guanidine Influx Assay (In Vitro Assay)
Assay type: cell-based, human or rat
Details: known cell line that expresses a sodium channel; read-out: IC50 Activity Level
pIC50: −log10 of the molar value. Structures can show the parent of a compound that is named as a salt.
Reported pIC50 values are given for each entry in this list.

// solved cases for pIC50 follow
- compound: "CCCCc1nc2ccccn2c(=O)c1-c1ccc(NC(=O)OC(C)(C)C)cc1 [Example 1.15]"
  measurement target: "sodium channel"
  pIC50: "≤ 5.00"
- compound: "CCCCc1nc2ccccn2c(=O)c1-c1ccc(NC[C@H]2CCCO2)cc1 [Example 3.27, hydrochloride]"
  measurement target: "sodium channel"
  pIC50: "≤ 5.00"
- compound: "CCCCc1nc2ccccn2c(=O)c1-c1ccc(N2CCNCC2)nc1 [Example 7.13, hydrochloride]"
  measurement target: "sodium channel"
  pIC50: "≤ 5.00"

Query CCCCc1nc2ccccn2c(=O)c1-c1ccc(N[C@@H]2CCCNC2)cc1 [Example 6.2, hydrochloride] on sodium channel; pIC50 returned: ≤ 5.00

Query O=c1c(-c2ccc(N[C@@H]3CCNC3)cc2)c(CCC2CC2)nc2ccccn12 [Example 7.7, hydrochloride] on sodium channel; pIC50 returned: 6.00 to 7.00

Query CCCCc1nc2ccccn2c(=O)c1-c1ccc(N2CCOCC2)cc1 [Example 3.25] on sodium channel; pIC50 returned: ≤ 5.00

* * *

Where a name gives a salt, the structure may show the parent alone.
observed property: melting point

// solved cases for melting point follow
- molecule: "CC(C)Nc1nc2ccccn2c(=O)c1-c1ccc(NC2CCNC2)cc1 (stereo not shown) (as salt: hydrochloride) [Example 7.9]"
  melting point: "232 to 236 °C"
- molecule: "CCCCc1nc2ccccn2c(=O)c1-c1ccc(N[C@@H]2CCNC2)cc1C (as salt: hydrochloride) [Example 7.3]"
  melting point: "179 to 187 °C"
- molecule: "CCCCc1nc2ccccn2c(=O)c1-c1ccc(N2CCNCC2)nc1 (as salt: hydrochloride) [Example 7.13]"
  melting point: "> 245 °C"

Read the next record carefully.
// melting point value for CCCCc1nc2ccccn2c(=O)c1-c1ccccc1Cl [Example 1.6] : 118 to 120 °C

* * *

Counter-ions that a name gives are not always drawn.
Reported melting point values are given for each entry in this list.

- molecule: "CCCNc1nc2ccccn2c(=O)c1-c1ccc(NC2CCNC2)cc1 (stereo not shown) (as salt: hydrochloride) [Example 7.8]"
  melting point: "156 to 161 °C"

// melting point value for CCCOc1nc2ccccn2c(=O)c1-c1ccc(N[C@@H]2CCNC2)cc1 (as salt: trifluoroacetate) [Example 9.1] : > 100 °C (dec.)

// melting point value for CC(C)CCc1nc2ccccn2c(=O)c1-c1ccc(Cl)cc1 [Example 1.17] : 146 to 149 °C

// melting point value for CCCCc1nc2ccccn2c(=O)c1-c1ccc(N)cc1 [Example 1.14] : 95 to 97 °C

// melting point value for CCCCc1nc2ccccn2c(=O)c1-c1ccc2c(c1)CCN2C1CCNC1 (stereo not shown) (as salt: hydrochloride) [Example 7.12] : 159 to 163 °C

// melting point value for CCCCc1nc2ccccn2c(=O)c1-c1ccc(N[C@@H]2CCN(C(=O)OC(C)(C)C)C2)cc1C [Example 3.10] : 162 to 168 °C

// melting point value for CCCNc1nc2ccccn2c(=O)c1-c1ccc(NC2CCN(C(=O)OC(C)(C)C)C2)cc1 (stereo not shown) [Example 3.21] : 187 to 190 °C

// melting point value for CC(C)Nc1nc2ccccn2c(=O)c1-c1ccc(NC2CCN(C(=O)OC(C)(C)C)C2)cc1 (stereo not shown) [Example 3.22] : 210 to 212 °C

// melting point value for COc1nc2ccccn2c(=O)c1-c1ccc(NC2CCN(C(=O)OC(C)(C)C)C2)cc1 (stereo not shown) [Example 3.19] : 102 to 104 °C

// melting point value for CCCc1nc2ccccn2c(=O)c1-c1ccc(Cl)cc1 [Example 1.4] : 109 to 110 °C

// melting point value for CCCCc1nc2ccccn2c(=O)c1-c1ccc(NC2CCNCC2)cc1 (as salt: hydrochloride) [Example 6.1] : > 220 °C

// melting point value for O=c1c(-c2ccc(N[C@@H]3CCNC3)cc2)c(CCC2CC2)nc2ccccn12 (as salt: hydrochloride) [Example 7.7] : 182 to 185 °C

// melting point value for CCCCc1nc2ccccn2c(=O)c1-c1ccc(O)cc1 [Example 11] : 160 °C (dec.)

* * *

Counter-ions that a name gives are not always drawn.
observed property: melting point

- compound: "Cc1nc2ccccn2c(=O)c1-c1ccc(N[C@@H]2CCNC2)cc1 (as salt: hydrochloride)"
  melting point: "149 to 158 °C"

// melting point value for CC(C)c1nc2ccccn2c(=O)c1-c1ccc(Cl)cc1 : 98 to 100 °C

// melting point value for CCCCc1nc2ccccn2c(=O)c1-c1ccc(Cl)c(C)c1 : 122 to 124 °C

// melting point value for CCCCc1nc2ccccn2c(=O)c1-c1ccc(O[C@@H]2CCNC2)cc1 (as salt: hydrochloride) : 132 to 140 °C

// melting point value for CC(C)CCc1nc2ccccn2c(=O)c1-c1ccc(N[C@@H]2CCNC2)cc1 (as salt: hydrochloride) : 171 to 187 °C

// melting point value for COCCc1nc2ccccn2c(=O)c1-c1ccc(Cl)cc1 : 116 to 118 °C

* * *

Reported melting point values are given for each entry in this list.
Structures can show the parent of a compound that is named as a salt.

// solved cases for melting point follow
- compound: "CCCCc1nc2ccccn2c(=O)c1-c1ccc(NC(=O)[C@@H]2CCCN2)cc1.Cl [Example 18]"
  melting point: "179 to 187 °C"
- compound: "CCCCc1nc2ccccn2c(=O)c1-c1ccc(NC[C@H]2CCCO2)cc1 (as salt: hydrochloride) [Example 3.27]"
  melting point: "155 to 170 °C"
- compound: "CC(C)c1nc2ccccn2c(=O)c1-c1ccc(N[C@@H]2CCN(C(=O)OC(C)(C)C)C2)cc1 (stereo in doubt) [Example 3.6]"
  melting point: "232 to 236 °C"
- compound: "CCCCc1nc2ccccn2c(=O)c1-c1ccc(Cl)cc1C [Example 1.9]"
  melting point: "105 to 107 °C"
- compound: "CCCCc1nc2ccccn2c(=O)c1-c1ccc(N[C@@H]2CCCNC2)cc1 (as salt: hydrochloride) [Example 6.2]"
  melting point: "190 to 210 °C"
- compound: "O=c1c(-c2ccc(N[C@@H]3CCNC3)cc2)c(N2CCCC2)nc2ccccn12 (as salt: chloride) [Example 7.11]"
  melting point: "177 to 183 °C"

// melting point value for CCCCc1nc2ccccn2c(=O)c1-c1ccc(NC2CCN(C(=O)OC(C)(C)C)C2)cc1 (stereo not shown) [Example 3.7] : 116 to 118 °C

* * *

System: sodium channel
Assay: Guanidine Influx Assay (In Vitro Assay)
Type: cell-based, human or rat
Details: known cell line that expresses a sodium channel; read-out: IC50 Activity Level
Experimental: This example describes an in vitro assay for testing and profiling test agents against human or rat sodium channels stably expressed in cells of either an endogenous or recombinant origin. […] The guanidine influx assay is a radiotracer flux assay used to determine ion flux activity of sodium channels in a high-throughput microplate-based format. […] Potency is determined by an IC-50 calculation. […] IC-50 value of a test agent for a specific sodium channel may be determined using the above general method. […]
pIC50: −log10 of the molar value. Counter-ions that a name gives are not always drawn.
Reported pIC50 values are given for each entry in this list.

- molecule: "CCCNc1nc2ccccn2c(=O)c1-c1ccc(NC2CCNC2)cc1 (stereo not drawn) [Example 7.8, hydrochloride]"
  observed property: "pIC50"
  test result: "≤ 5.00"

// pIC50 value for CCCCc1nc2ccccn2c(=O)c1-c1ccc(N[C@@H]2CCNC2)cc1.Cl [Example 8, hydrochloride] : 5.00 to 6.00

// pIC50 value for CCCCc1nc2ccccn2c(=O)c1-c1ccc(N[C@@H]2CCOC2)cc1 [Example 3.29, hydrochloride] : ≤ 5.00
